assayed.target: Dual specificity protein kinase CLK2 (Homo sapiens, UniProt P49760)
Sequence (P49760 whole entry): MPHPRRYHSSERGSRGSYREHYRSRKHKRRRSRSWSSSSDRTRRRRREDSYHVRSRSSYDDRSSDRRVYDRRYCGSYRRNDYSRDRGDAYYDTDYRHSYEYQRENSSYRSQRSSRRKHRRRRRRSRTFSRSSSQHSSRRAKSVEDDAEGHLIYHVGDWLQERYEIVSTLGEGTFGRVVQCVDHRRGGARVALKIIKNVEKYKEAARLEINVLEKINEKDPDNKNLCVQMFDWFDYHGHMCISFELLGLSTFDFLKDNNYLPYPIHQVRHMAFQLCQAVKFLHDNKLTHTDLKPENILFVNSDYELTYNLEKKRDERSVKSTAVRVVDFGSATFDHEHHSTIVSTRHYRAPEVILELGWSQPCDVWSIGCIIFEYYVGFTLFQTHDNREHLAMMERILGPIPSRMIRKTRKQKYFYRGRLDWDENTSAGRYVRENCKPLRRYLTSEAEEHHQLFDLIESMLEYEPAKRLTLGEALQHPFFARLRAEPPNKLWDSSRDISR
assay.remarks: Inhibition of human recombinant CLK2 using YRRAAVPPSPSLSR substrate by radiometric scintillation assay
IC50 for assorted molecules
# value in nM; strip the unit string

Below, each entry is followed by its recorded IC50 result.
Cn1cc(-c2ccc3occ(-c4cccc(-c5cc[nH]n5)c4)c3n2)cn1    16
CC(C)(C)c1ccc(-c2coc3ccc(-c4cn[nH]c4)nc23)cc1    1430
CN1CCC(c2cccc(-c3coc4ccc(-c5cnn(C)c5)nc34)c2)CC1    667
CC(C)Cc1ccc(-c2coc3ccc(-c4cn[nH]c4)nc23)cc1    827
c1ccc(-c2coc3ccc(-c4cn[nH]c4)nc23)cc1    72

Exercise: Any idea what IC50 came out for c1ccc(-c2ccc(-c3coc4ccc(-c5cn[nH]c5)nc34)cc2)cc1 on Dual specificity protein kinase CLK2 (Homo sapiens, UniProt P49760)?
Solution: 529

Exercise: Next molecule up: COc1ccc(-c2coc3ccc(-c4cn[nH]c4)nc23)cc1
Solution: 39

----------
assayed.target: Mitogen-activated protein kinase kinase kinase 10 (Homo sapiens, UniProt Q02779)
Sequence (Q02779 whole entry): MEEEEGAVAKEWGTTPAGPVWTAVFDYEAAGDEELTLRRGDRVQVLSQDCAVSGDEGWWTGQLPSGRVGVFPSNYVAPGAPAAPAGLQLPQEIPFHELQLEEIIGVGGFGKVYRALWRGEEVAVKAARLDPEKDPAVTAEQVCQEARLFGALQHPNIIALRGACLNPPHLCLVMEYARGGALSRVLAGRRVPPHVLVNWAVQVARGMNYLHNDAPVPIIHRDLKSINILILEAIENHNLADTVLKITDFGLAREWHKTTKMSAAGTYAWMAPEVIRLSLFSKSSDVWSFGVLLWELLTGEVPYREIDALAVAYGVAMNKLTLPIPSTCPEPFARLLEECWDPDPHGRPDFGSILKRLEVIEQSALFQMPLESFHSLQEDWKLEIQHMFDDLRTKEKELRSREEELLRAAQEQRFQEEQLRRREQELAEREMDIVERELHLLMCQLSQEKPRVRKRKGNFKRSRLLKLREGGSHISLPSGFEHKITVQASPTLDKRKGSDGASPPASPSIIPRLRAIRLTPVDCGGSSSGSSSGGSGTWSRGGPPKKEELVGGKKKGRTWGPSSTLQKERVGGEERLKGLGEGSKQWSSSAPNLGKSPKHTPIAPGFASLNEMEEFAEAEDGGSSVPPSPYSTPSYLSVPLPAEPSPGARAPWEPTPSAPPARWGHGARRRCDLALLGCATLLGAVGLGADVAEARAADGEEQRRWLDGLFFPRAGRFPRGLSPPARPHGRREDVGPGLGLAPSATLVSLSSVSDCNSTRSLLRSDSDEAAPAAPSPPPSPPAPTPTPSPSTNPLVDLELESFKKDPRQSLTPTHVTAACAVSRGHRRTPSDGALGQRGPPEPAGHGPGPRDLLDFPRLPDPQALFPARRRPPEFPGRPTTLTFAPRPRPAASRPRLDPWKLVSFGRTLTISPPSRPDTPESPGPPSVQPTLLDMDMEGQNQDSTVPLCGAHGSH
assay.remarks: Inhibition of MLK2 (unknown origin) by NanoBRET cellular target engagement assay
Listed here: items and their measured IC50.

COC(=N)c1nc2ccc3ncnc(Nc4ccc(OC)cc4F)c3c2s1    > 3 µM
CC(C)(C)c1ccc(-c2coc3ccc(-c4cn[nH]n4)nc23)cc1    > 50 µM

Now consider a different molecule.
Exercise: IC50 lookup needed for CC(C)(C)c1ccc(-c2coc3ccc(-c4cn[nH]c4)nc23)cc1 , thanks.
Solution: > 50 µM

----------
assayed.target: Dual specificity protein kinase CLK2 (Homo sapiens)
assay.remarks: Inhibition of human recombinant CLK2 using YRRAAVPPSPSLSR substrate by radiometric scintillation assay
Hi! Could you tag entries with IC50 below 90 nM as label 1, and those at or above as label 0? Much appreciated.

c1ccc2cc(-c3coc4ccc(-c5cn[nH]c5)nc34)ccc2c1    label 1
Cn1ccc(-c2ccc3occ(-c4ccc(C(C)(C)C)cc4)c3n2)n1    label 0
Cn1cc(-c2ccc3occ(-c4ccc(C(C)(C)C)cc4)c3n2)cn1    label 0
Cn1cc(-c2coc3ccc(-c4cn[nH]c4)nc23)cn1    label 0
CC1(c2ccc(-c3coc4ccc(-c5cn[nH]c5)nc34)cc2)CC1    label 0

Exercise: Could you please tell me whether IC50 recorded for CC(C)(C)c1ccc(-c2coc3ccc(-c4nn[nH]n4)nc23)cc1 is less than 90 nM?
Solution: label 0

Exercise: Next compound: CC(C)(C)c1ccc(-c2coc3ccc(-c4cc[nH]n4)nc23)cc1
Solution: label 0

Exercise: // next record Cn1cc(-c2ccc3occ(-c4cccc(-c5cn[nH]c5)c4)c3n2)cn1
Solution: label 1

Exercise: Entry to check: c1n[nH]cc1-c1ccc2occ(-c3ccc(C45CC6CC(CC(C6)C4)C5)cc3)c2n1
Solution: label 0

Exercise: What about Cn1cc(-c2cccc(-c3coc4ccc(-c5cnn(C)c5)nc34)c2)cn1 ?
Solution: label 1

----------
Items are presented alongside their recorded pIC50.
assayed.target: Dual specificity tyrosine-phosphorylation-regulated kinase 2 (Homo sapiens)
Sequence (Q92630 whole entry): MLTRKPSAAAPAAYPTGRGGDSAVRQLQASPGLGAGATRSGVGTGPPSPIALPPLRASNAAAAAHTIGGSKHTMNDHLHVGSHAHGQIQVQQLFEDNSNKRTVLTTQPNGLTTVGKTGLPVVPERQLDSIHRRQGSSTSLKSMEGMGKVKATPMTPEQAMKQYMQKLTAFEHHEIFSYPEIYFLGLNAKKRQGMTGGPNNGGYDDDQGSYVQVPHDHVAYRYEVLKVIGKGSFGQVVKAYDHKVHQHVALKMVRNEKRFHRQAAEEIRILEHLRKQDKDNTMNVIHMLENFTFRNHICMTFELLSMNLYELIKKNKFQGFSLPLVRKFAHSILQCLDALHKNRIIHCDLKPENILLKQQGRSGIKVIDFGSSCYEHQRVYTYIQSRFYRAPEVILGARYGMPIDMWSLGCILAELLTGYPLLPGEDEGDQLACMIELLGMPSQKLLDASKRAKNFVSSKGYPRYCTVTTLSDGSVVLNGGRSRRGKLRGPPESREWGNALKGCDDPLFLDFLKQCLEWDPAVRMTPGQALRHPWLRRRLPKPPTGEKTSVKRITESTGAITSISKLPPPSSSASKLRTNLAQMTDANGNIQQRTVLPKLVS
assay.remarks: Inhibition of human full length recombinant DYRK2 using casein substrate by radiometric scintillation assay
The meaning of pIC50 here: minus log10 of the concentration in molar units.

Exercise: // returns reported pIC50 for input COc1ccc(-c2coc3ccc(-c4cn[nH]c4)nc23)cc1
Solution: 6.00

Exercise: Check c1ccc(-c2coc3ccc(-c4cn[nH]c4)nc23)cc1 too.
Solution: 5.94

----------
pIC50 values by entry
assayed.target: Dual specificity tyrosine-phosphorylation-regulated kinase 1A (Homo sapiens)
assay.remarks: Inhibition of human full length recombinant DYRK1A using RRRFRPASPLRGPP substrate by radiometric scintillation assay
pIC50: −log10 of the molar value.

Guide cases for pIC50, answers given:
Cn1cc(-c2ccc3occ(-c4cccc(-c5cc[nH]n5)c4)c3n2)cn1    6.94
Cn1cc(-c2ccc3occ(-c4cccc(C5CCNCC5)c4)c3n2)cn1    6.49
Cn1cc(-c2ccc3occ(-c4cccc(-c5cn[nH]c5)c4)c3n2)cn1    6.86

Exercise: Bench note: what pIC50 did Cn1ccc(-c2ccc3occ(-c4ccc(C(C)(C)C)cc4)c3n2)n1 show?
Solution: < 5.52

Exercise: For c1ccc(-c2ccc(-c3coc4ccc(-c5cn[nH]c5)nc34)cc2)cc1 then?
Solution: < 5.52

Exercise: Another: CC1(c2ccc(-c3coc4ccc(-c5cn[nH]c5)nc34)cc2)CC1
Solution: < 5.52

Exercise: Similarly, CC(C)(C)c1ccc(-c2coc3ccc(-c4cn[nH]c4)nc23)cc1 ?
Solution: < 5.52

Exercise: Also, CN1CCC(c2cccc(-c3coc4ccc(-c5cnn(C)c5)nc34)c2)CC1 please.
Solution: 6.25

Exercise: Can you check c1n[nH]cc1-c1ccc2occ(-c3ccc(C45CC6CC(CC(C6)C4)C5)cc3)c2n1 next?
Solution: < 5.52

Exercise: Follow-up entry: CC(C)Cc1ccc(-c2coc3ccc(-c4cn[nH]c4)nc23)cc1
Solution: < 5.52

Exercise: Then what about the compound c1ccc(Cc2ccc(-c3coc4ccc(-c5cn[nH]c5)nc34)cc2)cc1 ?
Solution: < 5.52

Exercise: // same read-out, input: CC(C)(C)c1ccc(-c2coc3ccc(-c4cc[nH]n4)nc23)cc1
Solution: < 5.52

----------
assayed.target: Homeodomain-interacting protein kinase 1 (Homo sapiens)
Sequence (Q86Z02 whole entry): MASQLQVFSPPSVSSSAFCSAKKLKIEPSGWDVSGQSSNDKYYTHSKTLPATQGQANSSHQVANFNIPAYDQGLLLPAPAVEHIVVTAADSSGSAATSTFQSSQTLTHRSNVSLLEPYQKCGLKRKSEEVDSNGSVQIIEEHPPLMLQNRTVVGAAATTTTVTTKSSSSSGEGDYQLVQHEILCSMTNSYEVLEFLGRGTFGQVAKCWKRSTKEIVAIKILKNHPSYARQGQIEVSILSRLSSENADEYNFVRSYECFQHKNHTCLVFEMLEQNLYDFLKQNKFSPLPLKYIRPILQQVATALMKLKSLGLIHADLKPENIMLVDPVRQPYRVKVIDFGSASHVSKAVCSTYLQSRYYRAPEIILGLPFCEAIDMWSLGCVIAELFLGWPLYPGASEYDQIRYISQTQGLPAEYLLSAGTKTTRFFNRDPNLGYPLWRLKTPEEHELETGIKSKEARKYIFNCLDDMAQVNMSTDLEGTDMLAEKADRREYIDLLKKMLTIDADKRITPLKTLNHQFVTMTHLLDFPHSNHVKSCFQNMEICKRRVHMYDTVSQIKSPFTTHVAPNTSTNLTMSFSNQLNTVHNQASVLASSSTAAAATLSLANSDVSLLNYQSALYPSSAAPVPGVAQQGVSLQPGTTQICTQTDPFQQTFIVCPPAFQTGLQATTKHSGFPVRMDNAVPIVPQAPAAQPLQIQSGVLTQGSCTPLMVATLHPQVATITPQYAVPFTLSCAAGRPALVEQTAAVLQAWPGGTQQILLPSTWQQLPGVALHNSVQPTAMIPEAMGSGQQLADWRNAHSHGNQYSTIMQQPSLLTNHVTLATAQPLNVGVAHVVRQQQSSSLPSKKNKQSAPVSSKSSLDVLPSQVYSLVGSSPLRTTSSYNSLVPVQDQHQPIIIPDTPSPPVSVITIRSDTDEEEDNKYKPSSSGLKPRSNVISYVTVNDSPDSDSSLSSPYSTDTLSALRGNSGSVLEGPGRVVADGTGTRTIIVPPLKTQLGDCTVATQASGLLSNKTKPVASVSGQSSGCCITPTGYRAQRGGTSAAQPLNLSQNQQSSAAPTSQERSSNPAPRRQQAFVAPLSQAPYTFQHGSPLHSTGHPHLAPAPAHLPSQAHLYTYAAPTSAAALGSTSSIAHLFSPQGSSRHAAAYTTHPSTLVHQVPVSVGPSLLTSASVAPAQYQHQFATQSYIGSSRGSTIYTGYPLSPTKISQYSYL
assay.remarks: Inhibition of HIPK1 (unknown origin)
outcome.measure: pIC50
Units for pIC50: none; it is -log10 of a concentration expressed in mol/L.

Exercise: Param item = Cc1[nH]c(/C=C2\C(=O)Nc3ccc(S(=O)(=O)Cc4c(Cl)cccc4Cl)cc32)c(C)c1C(=O)N1CCC[C@@H]1CN1CCCC1 ; retrieve measured pIC50.
Solution: 7.00

----------
assayed.target: Dual specificity protein kinase CLK2 (Homo sapiens, UniProt P49760)
assay.remarks: Inhibition of human recombinant CLK2 using YRRAAVPPSPSLSR substrate by radiometric scintillation assay
outcome.measure: pIC50
// scale note: pIC50 = -log10(conc_M); give the bare number

Exercise: Please give the measured pIC50 for this compound: c1ccc(Cc2ccc(-c3coc4ccc(-c5cn[nH]c5)nc34)cc2)cc1
Solution: 5.73

Exercise: // repeat for C=C(C)c1ccc(-c2coc3ccc(-c4cn[nH]c4)nc23)cc1 and report
Solution: 7.40

----------
assayed.target: Dual specificity tyrosine-phosphorylation-regulated kinase 2 (Homo sapiens, UniProt Q92630)
assay.remarks: Inhibition of DYRK2 (unknown origin) by NanoBRET cellular target engagement assay
outcome.measure: IC50

CC(C)(C)c1ccc(-c2coc3ccc(-c4cn[nH]c4)nc23)cc1    > 50 µM
COC(=N)c1nc2ccc3ncnc(Nc4ccc(OC)cc4F)c3c2s1    > 3 µM
CC(C)(C)c1ccc(-c2coc3ccc(-c4cn[nH]n4)nc23)cc1    > 50 µM

Kindly consider the entry below.
Exercise: GET /values?readout=IC50&item= O=C(Nc1c[nH]nc1-c1nc2cc(CN3CCOCC3)ccc2[nH]1)NC1CC1
Solution: 0.57 µM

----------
assayed.target: Homeodomain-interacting protein kinase 2 (Homo sapiens, UniProt Q9H2X6)
Sequence (Q9H2X6 whole entry): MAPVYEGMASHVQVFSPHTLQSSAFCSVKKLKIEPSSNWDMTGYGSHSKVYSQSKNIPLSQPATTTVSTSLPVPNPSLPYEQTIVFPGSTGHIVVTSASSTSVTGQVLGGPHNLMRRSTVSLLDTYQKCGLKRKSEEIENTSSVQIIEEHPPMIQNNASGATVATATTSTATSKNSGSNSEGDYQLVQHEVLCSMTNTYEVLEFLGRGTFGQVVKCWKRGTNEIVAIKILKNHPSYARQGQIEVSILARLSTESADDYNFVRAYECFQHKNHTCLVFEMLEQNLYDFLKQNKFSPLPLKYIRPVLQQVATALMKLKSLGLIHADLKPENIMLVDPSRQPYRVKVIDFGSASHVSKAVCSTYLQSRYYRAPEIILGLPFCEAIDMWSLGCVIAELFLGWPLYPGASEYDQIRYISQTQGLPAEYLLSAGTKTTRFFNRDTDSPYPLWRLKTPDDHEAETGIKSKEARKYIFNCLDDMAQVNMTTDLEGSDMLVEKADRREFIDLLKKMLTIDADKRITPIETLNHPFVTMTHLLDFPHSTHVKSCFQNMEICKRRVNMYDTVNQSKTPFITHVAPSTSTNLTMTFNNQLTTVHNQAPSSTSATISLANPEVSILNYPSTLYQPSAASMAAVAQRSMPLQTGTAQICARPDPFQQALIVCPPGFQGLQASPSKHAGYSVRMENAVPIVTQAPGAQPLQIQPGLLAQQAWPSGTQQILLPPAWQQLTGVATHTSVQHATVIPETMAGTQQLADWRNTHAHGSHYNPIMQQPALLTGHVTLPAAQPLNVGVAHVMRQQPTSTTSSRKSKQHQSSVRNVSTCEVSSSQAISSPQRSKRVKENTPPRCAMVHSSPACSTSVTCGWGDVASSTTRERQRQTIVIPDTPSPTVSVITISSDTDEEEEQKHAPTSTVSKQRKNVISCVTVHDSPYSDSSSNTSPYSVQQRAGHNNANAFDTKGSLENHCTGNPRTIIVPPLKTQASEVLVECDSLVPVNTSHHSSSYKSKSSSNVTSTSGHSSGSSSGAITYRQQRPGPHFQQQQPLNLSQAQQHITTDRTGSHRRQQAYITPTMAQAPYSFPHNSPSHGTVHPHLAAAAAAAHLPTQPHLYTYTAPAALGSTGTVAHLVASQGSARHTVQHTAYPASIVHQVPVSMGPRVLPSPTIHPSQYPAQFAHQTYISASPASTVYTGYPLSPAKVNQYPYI
assay.remarks: Inhibition of human recombinant HIPK2 using myelin substrate by radiometric scintillation assay
pIC50: −log10 of the molar value.
# pIC50 >= 7 gives Y, anything below gives N

Reference set (5 entries):
CN1CCC(c2cccc(-c3coc4ccc(-c5cnn(C)c5)nc34)c2)CC1    N
COc1ccc(-c2coc3ccc(-c4cn[nH]c4)nc23)cc1    Y
c1ccc(Cc2ccc(-c3coc4ccc(-c5cn[nH]c5)nc34)cc2)cc1    N
c1ccc(-c2coc3ccc(-c4cn[nH]c4)nc23)cc1    Y
CC(C)(C)c1ccc(-c2coc3ccc(-c4cc[nH]n4)nc23)cc1    N

Exercise: Is it the case that c1n[nH]cc1-c1ccc2occ(-c3ccc(C45CC6CC(CC(C6)C4)C5)cc3)c2n1 has pIC50 reaching or exceeding 7?
Solution: N

Exercise: Then this compound: c1n[nH]cc1-c1ccc2occ(-c3ccc(C4CCCCC4)cc3)c2n1
Solution: N

Exercise: Repeat with c1ccc2cc(-c3coc4ccc(-c5cn[nH]c5)nc34)ccc2c1
Solution: Y
